# Tested on: MOLT-4
# assayProcedure: NCI tumour cell line growth inhibition, 48 h
Activity calls are given as the source filed them. No stated cut-off is given here; in the data, active = GI50 up to about 1.1 µM and inactive = higher.
Outcomes: class 1 for active, class 0 for inactive

compound	group
CC1=C(CCC(C)CO)O[C@H]2C[C@H]3[C@@H]4CC[C@H]5C[C@@H](O)CC[C@]5(C)[C@H]4CC(=O)[C@]3(C)[C@@H]12 (stereo partly drawn)	class 0
COC(=O)[C@]1(c2cc3ccccc3[nH]2)CC2CN(CC(=O)N(C)OC)C1C1OC(C)(C)OC21 (stereo partly drawn)	class 0
Cc1[nH]c2ccccc2c1CC/C(=N\Nc1ccccc1)c1ccccc1	class 0
O=C1N/C(=N/N=C/C(O)C(O)C(O)CO)N/C1=C\c1ccco1 (stereo not drawn)	class 0
N/C(=N\Nc1cccc(Cl)c1)c1cccnc1	class 0
CC(=O)N(CN1C(=O)CCC1C(=O)O)c1ccccc1Cl (stereo not drawn)	class 0
CCOP(=O)(OCC)/C(C#N)=C/c1cccn1C	class 0
c1ccc2c(c1)-c1ccccc1C2N1CC2CCC(CC2)C1	class 0
CCOC(=O)C1(Cc2ccc3c(c2)CCC3)Cc2cc3c(cc2C1)CCC3	class 0
Cc1oc2nc(N(C)C)nc(Cl)c2c1C	class 0
O=P1(Oc2ccc(Cl)cc2Cl)Oc2cc3ccccc3cc2O1	class 0
Cc1ccc(C2(c3ccc(Cl)cc3)c3ccccc3C3=NCCN32)cc1 (stereo not drawn)	class 0
C#CCOCC12C=CC(O1)C1C(=O)N(C)C(=O)C12 (stereo not drawn)	class 0
CO[C@@H]1C[C@H](OC(N)=O)[C@@H]2C=C[C@@H]3/C=C(C)/C=C/[C@@H](C)[C@H](/C(C)=C/[C@@H](C)NC(C)=O)OC(=O)/C=C/C=C(C)\C=C\[C@]3(C)[C@@H]2C1 [SUPERSTOLIDE B]	class 1
O=P(O)(O)CN1CCNCCN(CP(=O)(O)O)CCN(CP(=O)(O)O)CCNCC1	class 0
O=C(O)c1c(CC(Cc2ccc3c(c2)CCC3)C(=O)O)ccc2c1CCC2 (stereo not drawn)	class 0
COC(=O)Cn1c(=O)oc2nc(-c3ccccc3)cc(C(F)(F)F)c21	class 0
OCCCNCc1ccncc1	class 0
CC(C)(Br)C(=O)/C=C/c1ccccc1	class 0
COc1ccc(Nc2nc3ccc(C(F)(F)F)cc3nc2C(=O)O)cc1OC	class 0
CC1(C)CC(=O)c2c(nc3ccc4ccccc4c3c2-c2ccc(NC(=O)CCCC(=O)Nc3ccc(-c4c5c(nc6ccc7ccccc7c46)CC(C)(C)CC5=O)cc3)cc2)C1	class 0
Cc1[nH]n(-c2nc(-c3ccccc3)cc(=O)[nH]2)c(=O)c1CCO	class 0
COc1ccc2c(c1)c1c(n2CCN2CCOCC2)-c2ccccc2CC1	class 0
CCOC(=O)/C(=C\c1cn(C(C)=O)c2ccccc12)P(C)(=O)OCC (stereo not drawn)	class 0
C=CCOC(=O)C1=C(CCC[C@@H](C)O[Si](C)(C)C(C)(C)C)N=C(N)N2[C@H](CCO)CC[C@@H]12	class 0
COc1ccc(O)c(/C=N/CCC/N=C/c2cc(OC)ccc2O)c1	class 0
Ic1cc2c(cc1C1SCCCS1)OCO2	class 0
CCC(COC(=O)CC[C@@H](NC(=O)C(C)NC(=O)C(C)OC1C(O)C(CO)OC(OCc2ccccc2)C1NC(C)=O)C(N)=O)NC1c2ccccc2Nc2cccc([N+](=O)[O-])c21 (stereo partly drawn)	class 0
C=C1CCc2occ(C)c2C2C1C1=C(CC(C)C1=O)C1OC12C (stereo not drawn)	class 0
C/N=C(\SC)N(C)c1nc(=[N+](C)C)ss1.[O-][Cl+3]([O-])([O-])[O-]	class 0
COc1ccc(/C=C2\CCC(CCN3CCOCC3)C2=O)cc1 (stereo not drawn)	class 0
Brc1ccc(/N=N/N2CCCCC2)cc1	class 0
COc1cc2c(c(OC)c1OC)-c1ccc(SC)c(=O)cc1[C@@H](NC(=O)c1ccc(C#N)cc1)CC2	class 1
CC1OC(OC2C(O[C@@H]3C[C@@H]4CC[C@@H]5[C@H](CC[C@]6(C)[C@@H]7[C@H](C[C@@H]56)O[C@]5(CC[C@@H](C)CO5)[C@H]7C)[C@@]4(C)C[C@H]3O)OC(CO)C(OC3OC(CO)C(O)C(O)C3O)C2O)C(O)C(O)C1O (stereo partly drawn)	class 0
CCCCCCCC(=O)OC[n+]1cccc(-c2c(COC(=O)NC(C)C)c(COC(=O)NC(C)C)c3n2CCC3)c1	class 0
CCOc1ccc(NC(=O)/C=C/c2ccco2)cc1	class 0
CCCC(=O)N1CCN(c2ccc3c(c2)OC(C)O3)CC1 (stereo not drawn)	class 0
CCOC(=O)[C@@H]1ON2O[C@@H](OC3CCCCC3c3ccccc3)C[C@H]3OC(=O)[C@@H]1C32 (stereo partly drawn)	class 0

---

Catalogue of molecules with associated GI50
# Tested on: DLD-1
# assayProcedure: NCI tumour cell line growth inhibition, 48 h
The source made the active and inactive calls. Cut-off read from the data, not from the text of the source: active = GI50 up to about 1.1 µM and inactive = higher.
measuredMetric: GI50

molecule	result
CC1CC2OC(=O)C3CC(O)CC(=C23)[C@@]12C[C@@H](c1ccoc1)OC2=O (stereo partly drawn)	> 100 µM (inactive)
Cc1cccc2c1Oc1cc(Cl)ccc1C2NC(=O)CN(C)C (stereo not drawn)	58.3 µM (inactive)
CSCC[C@@H](NC(=O)[C@H](CC(C)C)NC(=O)C(Cc1cnc[nH]1)NC(=O)CNC(=O)[C@@H](NC(=O)[C@H](C)NC(=O)[C@H](Cc1c[nH]c2ccccc12)NC(=O)[C@H](CCC(N)=O)NC(=O)[C@@H](N)CC(N)=O)C(C)C)C(N)=O (stereo partly drawn)	> 100 µM (inactive)
O=C(CSc1nc(-c2ccccc2)c(-c2ccccc2)[nH]1)N/N=C/c1ccc([N+](=O)[O-])cc1	18.1 µM (inactive)
CCOc1c(Cc2ccccc2)c(=O)n2c3ccccc3n3c(=O)n(C)c(=O)c1c23	> 100 µM (inactive)
C=C1CCCC2OC(OC)CCC12 (stereo not drawn)	> 100 µM (inactive)
O=c1[nH]cc(COCC(F)(F)C(F)(F)C(F)(F)C(F)F)c(=O)[nH]1	> 100 µM (inactive)
c1ccc2c(c1)N=C(c1ccc3ccccc3c1)CC(c1cccc3ccccc13)S2 (stereo not drawn)	11.6 µM (inactive)

---

# System: COLO 205
# assayProcedure: NCI tumour cell line growth inhibition, 48 h
Calls of active or inactive are those of the source. Rule as the data show it: active = GI50 up to about 1.1 µM and inactive = higher.
Outcomes: y (active), n (inactive)

In [3]: df
Out[3]:
                                    compound  group
 0  O=C(CNc1cccc(Cl)c1)Nn1c(-c2ccccc2)nc2ccccc2c1=O      n
 1     O=C(O)CCc1cccc2c1oc1c(CCC(=O)O)cccc12      n
 2  CN(C)c1ccc(/C=C2\N=C(N/N=C/c3ccccc3O)NC2=O)cc1      n
 3   O=C(CCc1nnc(S)[nH]1)Nc1cccc(C(F)(F)F)c1      n
 4         Cc1c2cnccc2c(C)c2c1c1ccccc1n2CCCN      y
 5  COC1OC2COC(c3ccccc3)OC2C(O)C1OC(=S)c1ccccc1 (centres undefined)      n
 6  CCOC(=O)C(=[N+]=[N-])C(=O)Nc1nn2nnnc2c2ccccc12      n
 7  CCOC(=O)/C(=C\c1cn(C(C)=O)c2ccccc12)P(C)(=O)OCC (centres undefined)      n
 8  NC(Cc1ccc(CP(=O)(O)O)cc1)C(=O)O (centres undefined)      n
 9  O=P(O)(O)CN1CCNCCN(CP(=O)(O)O)CCN(CP(=O)(O)O)CCNCC1      n
10  Clc1ccc(SCCSCCCCCCCCCCSCCSc2ccc(Cl)cc2)cc1      n
11  CCOC(=O)/C(=C/c1ccc(OC)c(OC)c1)C(=O)c1ccccc1      n
12  CCCCCCCCCCCCOCCCCCCCCC/C=C/c1ccc2c(c1)OCCOCCOCCOCCO2      n
13  COc1ccc2c(c1)c1c(n2CCN2CCOCC2)-c2ccccc2CC1      n
14                  Ic1cc2c(cc1C1SCCCS1)OCO2      n
15  CC1C(=O)N(C)C2(CO)C(=O)O[C@H](C)C12O (some centres undefined)      n
16  Cn1c(=O)nc2n(-c3ccc(Br)cc3)c3ccccc3nc-2c1=O      n
17  CC1=C(C(=O)Nc2ccccc2)C2(CCCCC2)C(C#N)=C(SCC(=O)Nc2ccc(Br)cc2)N1      n
18             N/C(=N\Nc1cccc(Cl)c1)c1cccnc1      n
19                      O=C1CCCCc2cccc(O)c21      n
20               CC(=O)NC1=CC(=O)C=C(Cl)C1=O      n
21  CCCC(=O)N1CCN(c2ccc3c(c2)OC(C)O3)CC1 (centres undefined)      n
22   Cc1nc(=O)n2c(c1C(=O)Nc1ccc(Cl)cc1)NCCC2      n
23  O=[N+]([O-])c1cccc(-c2nc(-c3ccccc3)c(-c3ccccc3)[nH]2)c1      n
